Experimental details: qHTS of pediatric cancer cell lines to identify multiple opportunities for drug repurposing: Primary screen for NB-EBc1 cells (AID 1347095)
Experimental setup: NB-EBc1 neuroblastoma viability, CellTiter-Glo luminescence, 48 h; series mostly up to 46 µM
Results filed as inconclusive are left out. Calls of active or inactive are those of the source. Calls follow the shape of the dose curve; as a rule, active = well fitted cell-killing curve with a large enough effect; inconclusive = small, poorly fitted or top-dose-only effect; inactive = no such curve, though single readings can be large or run the other way.
Field 'call' accepts TRUE = active, FALSE = inactive

Compound | Class name
CCN1C[C@]2(OC(=O)c3ccccc3NC(C)=O)CC[C@H](OC)[C@@]34[C@H]5CC6[C@@H](OC)C[C@](O)(C(C[C@@H]23)[C@@H]14)[C@@]5(O)[C@@H]6OC | FALSE

// next entry
Task item: Can you look up the reported call for Cc1c(N)nc([C@H](CC(N)=O)NC[C@@H](N)C(N)=O)nc1C(=O)N[C@H](C(=O)N[C@@H](C)[C@H](O)[C@@H](C)C(=O)N[C@@H](C(=O)NCCc1nc(-c2nc(C(=O)NCCC[S+](C)C)cs2)cs1)[C@@H](C)O)C(O[C@H]1O[C@H](CO)[C@H](O)[C@@H](O)[C@@H]1O[C@H]1O[C@H](CO)[C@@H](O)[C@H](OC(N)=O)[C@H]1O)c1cnc[nH]1 (some centres not stated) for me?
Reply: TRUE
